Protocol details: Tmax in po dosed Sprague-Dawley rat
Format: ADME, organism-based
Experimental setup: in vivo

{"Input smiles": "O=C(c1ccc(F)c(F)c1)N1CCN2C(=O)c3ccccc3[C@@]12c1ccc(Cl)cc1", "Tmax, h": 7}

====

Protocol details: Oral bioavailability in Sprague-Dawley rat
Assay type: ADME, organism-based
Experimental setup: in vivo
Measure name: bioavailability (%)

{"Input smiles": "O=C(c1ccc(F)c(F)c1)N1CCN2C(=O)c3ccccc3[C@@]12c1ccc(Cl)cc1", "Measure name": "bioavailability", "Value reported": 80}

====

Target: Muscarinic acetylcholine receptor M5 (Homo sapiens) (UniProt P08912)
Sequence (P08912 whole entry): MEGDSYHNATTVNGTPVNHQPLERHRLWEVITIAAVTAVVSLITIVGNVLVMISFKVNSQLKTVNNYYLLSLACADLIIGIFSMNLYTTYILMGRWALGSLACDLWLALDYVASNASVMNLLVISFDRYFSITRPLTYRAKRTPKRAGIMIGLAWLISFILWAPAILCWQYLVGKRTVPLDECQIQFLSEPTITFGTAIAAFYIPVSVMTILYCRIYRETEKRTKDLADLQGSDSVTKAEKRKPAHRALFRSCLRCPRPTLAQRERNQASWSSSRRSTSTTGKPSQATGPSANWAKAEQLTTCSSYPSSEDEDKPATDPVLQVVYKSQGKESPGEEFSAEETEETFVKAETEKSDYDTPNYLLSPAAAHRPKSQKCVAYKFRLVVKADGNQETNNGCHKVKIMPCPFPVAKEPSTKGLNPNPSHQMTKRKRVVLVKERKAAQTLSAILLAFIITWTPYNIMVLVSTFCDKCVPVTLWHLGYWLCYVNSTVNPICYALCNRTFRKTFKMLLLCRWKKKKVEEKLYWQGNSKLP
Protocol details: Negative allosteric modulation of human muscarinic acetylcholine receptor M5 expressed in CHO cells assessed as reduction of acetylcholine-induced calcium mobilization at 10 uM incubated for 150 secs prior to acetylcholine induction by Fluo-4 AM staining-based fluorescence assay relative to control
Format: functional, cell-based
Design: scale not given: the % may be the effect or the level left
Measure name: Activity (%)

{"Compound": "Cc1ccc(C23c4ccccc4C(=O)N2CCN3C(=O)c2ccc(OC(F)(F)F)cc2)cc1 (centres undefined)", "Measure name": "Activity", "Value reported": -0.2}
{"Compound": "O=C(c1ccc(OC(F)(F)F)cc1)N1CCN2C(=O)c3ccccc3C12c1ccc(Cl)cc1 (centres undefined)", "Measure name": "Activity", "Value reported": -5.3}
{"Compound": "O=C(c1ccc(F)c(F)c1)N1CCN2C(=O)c3ccccc3C12c1ccccc1 (centres undefined)", "Measure name": "Activity", "Value reported": 0}
{"Compound": "O=C(c1cccc(C(F)(F)F)c1)N1CCN2C(=O)c3ccccc3C12c1ccc(Cl)cc1 (centres undefined)", "Measure name": "Activity", "Value reported": -7.2}

Measured values drawn from ChEMBL document CHEMBL3102750 for this set.
